Values were extracted from patent US8440653B2.

measurement target: human MC1R (Homo sapiens)
Sequence (Q01726 whole entry): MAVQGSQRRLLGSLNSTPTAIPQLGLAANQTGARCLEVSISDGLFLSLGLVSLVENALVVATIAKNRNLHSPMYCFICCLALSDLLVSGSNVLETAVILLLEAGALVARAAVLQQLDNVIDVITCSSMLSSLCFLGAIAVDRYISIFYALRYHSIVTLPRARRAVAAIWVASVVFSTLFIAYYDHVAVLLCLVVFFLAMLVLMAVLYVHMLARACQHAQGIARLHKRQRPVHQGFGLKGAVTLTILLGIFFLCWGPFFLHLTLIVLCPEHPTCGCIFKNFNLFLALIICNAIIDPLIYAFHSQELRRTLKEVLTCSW
property measured: IC50

• CC[C@H](CN1CC[C@@H](CNC(=O)c2ccc3cc(Cl)ccc3c2)N[C@@H](CCC(C)C)C1=O)c1ccccc1 = > 10 µM

* * *

measurement target: human MC5R (hMC5R) (Homo sapiens)
Construct: purchased Perkin Elmer RBXMC5M400UA
procedure summary: Human MC5R radioligand binding assay ([125I] NDP-MSH displacement)
test settings: hMC5R membranes, [125I] NDP-MSH; tested as trifluoroacetate or hydrochloride salts or free bases; read-out: MC5R radioligand IC50
pIC50: −log10 of the molar value.
property measured: pIC50

• CC[C@H](CN1CC[C@@H](CNC(=O)c2ccc(Cl)c(Cl)c2)N[C@@H](CCO)C1=O)c1ccccc1 = > 5.00
• Nc1ccccc1C[C@@H]1N[C@H](CNC(=O)/C=C/c2ccc(Cl)cc2)CCN(CC(c2ccccc2)c2ccccc2)C1=O = > 6.00
• CCCC[C@@H]1N[C@H](CNC(=O)c2ccc3ccccc3c2)CCN(CC(c2ccccc2)c2ccccc2)C1=O = > 6.00
• CC[C@H](CN1CC[C@@H](CNC(=O)c2ccc3cc(Cl)ccc3c2)N[C@@H](CC(C)C)C1=O)c1ccccc1 = > 5.00
• NC(=O)CC[C@@H]1N[C@H](CNC(=O)c2ccc3ccccc3c2)CCN(CC(c2ccccc2)c2ccccc2)C1=O = > 6.00
• CC[C@H](CN1CC[C@@H](CNC(=O)c2ccc3cc(Cl)ccc3c2)N[C@@H](CCC(C)C)C1=O)c1ccccc1 = > 7.00
• CC[C@H](CN1CC[C@@H](CNC(=O)c2ccc(Cl)c(Cl)c2)N[C@@H](CCC(=O)N2CCCCC2)C1=O)c1ccccc1 = > 5.00
• O=C(NC[C@@H]1CCN(CC(c2ccccc2)c2ccccc2)C(=O)[C@H](CCC2CCCCC2)N1)c1ccc2ccccc2c1 = > 6.00
• CC[C@H](CN1CC[C@@H](CNC(=O)c2ccc3cc(Cl)ccc3c2)N[C@@H](CCC(=O)N2CCCCC2)C1=O)c1ccccc1 = > 7.00
• O=C(NC[C@@H]1CCN(CC(c2ccccc2)c2ccccc2)C(=O)[C@H](Cc2ccccc2N2CCCCC2)N1)c1ccc2ccccc2c1 = > 5.00
• O=C(/C=C/c1ccc(Cl)cc1)NC[C@@H]1CCN(CC(c2ccccc2)c2ccccc2)C(=O)[C@H](Cc2ccccn2)N1 = > 5.00
• O=C(NC[C@@H]1CCN(CC(c2ccccc2)c2ccccc2)C(=O)[C@H](Cc2ccccc2)N1)c1ccc2ccccc2c1 = > 6.00
• O=C(/C=C/c1ccc(Cl)cc1)NC[C@@H]1CCN(CC(c2ccccc2)c2ccccc2)C(=O)[C@H](Cc2c[nH]cn2)N1 = > 5.00
• O=C(NC[C@@H]1CCN(CC(c2ccccc2)c2ccccc2)C(=O)[C@H](Cc2cccnc2)N1)c1ccc2ccccc2c1 = > 6.00
• Nc1ccccc1C[C@@H]1N[C@H](CNC(=O)c2ccc3ccccc3c2)CCN(CC(c2ccccc2)c2ccccc2)C1=O = > 6.00
• CCCC[C@@H]1N[C@H](CNC(=O)c2ccc3cc(Cl)ccc3c2)CCN(C[C@@H](CC)c2ccccc2)C1=O = > 6.00
• O=C(/C=C/c1ccc(Cl)cc1)NC[C@@H]1CCN(CC(c2ccccc2)c2ccccc2)C(=O)[C@H](CC(=O)Nc2ccccn2)N1 = > 6.00

* * *

The entries below come with measured IC50 values attached.
measurement target: human MC5R (hMC5R) (Homo sapiens, UniProt P33032)
Construct: purchased Perkin Elmer RBXMC5M400UA
Sequence (P33032 whole entry): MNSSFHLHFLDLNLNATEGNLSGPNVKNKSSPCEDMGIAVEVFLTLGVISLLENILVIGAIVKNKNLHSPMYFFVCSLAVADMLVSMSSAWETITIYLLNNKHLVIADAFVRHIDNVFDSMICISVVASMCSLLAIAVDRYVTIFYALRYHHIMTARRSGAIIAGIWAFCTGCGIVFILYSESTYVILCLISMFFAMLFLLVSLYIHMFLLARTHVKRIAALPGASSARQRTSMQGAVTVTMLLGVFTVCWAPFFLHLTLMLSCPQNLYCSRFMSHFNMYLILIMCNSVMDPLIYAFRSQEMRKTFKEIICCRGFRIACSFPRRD
procedure summary: Human MC5R radioligand binding assay ([125I] NDP-MSH displacement)
test settings: hMC5R membranes, [125I] NDP-MSH; tested as trifluoroacetate or hydrochloride salts or free bases; read-out: MC5R radioligand IC50
property measured: IC50

* O=C(NC[C@@H]1CCN(CC(c2ccccc2)c2ccccc2)C(=O)[C@H](Cc2ccncc2)N1)c1ccc2ccccc2c1 | < 10 µM
* O=C(NC[C@@H]1CCN(CC(c2ccccc2)c2ccccc2)C(=O)[C@H](CCc2ccccc2)N1)c1ccc2ccccc2c1 | < 1 µM
* N=C(N)NOCC[C@@H]1N[C@H](CNC(=O)c2ccc3ccccc3c2)CCN(CC(c2ccccc2)c2ccccc2)C1=O | < 1 µM
* CC[C@H](CN1CC[C@@H](CNC(=O)c2ccc3cc(Cl)ccc3c2)N[C@@H](CCCCO)C1=O)c1ccccc1 | < 0.1 µM
* CCCCN(C)C(=O)CC[C@@H]1N[C@H](CNC(=O)c2ccc3ccccc3c2)CCN(C[C@@H](CC)c2ccccc2)C1=O | < 1 µM
* CCCCCC[C@@H]1N[C@H](CNC(=O)c2ccc3cc(Cl)ccc3c2)CCN(C[C@@H](CC)c2ccccc2)C1=O | < 0.1 µM
* CC[C@H](CN1CC[C@@H](CNC(=O)c2ccc3cc(Cl)ccc3c2)N[C@@H](CCOC)C1=O)c1ccccc1 | < 0.1 µM
* O=C(NC[C@@H]1CCN(CC(c2ccccc2)c2ccccc2)C(=O)[C@H](CC2CCCCC2)N1)c1ccc2ccccc2c1 | < 1 µM
* CC[C@H](CN1CC[C@@H](CNC(=O)c2ccc3ccccc3c2)N[C@@H](CCC(=O)NC2CCCCC2)C1=O)c1ccccc1 | < 1 µM
* CC[C@H](CN1CC[C@@H](CNC(=O)c2ccc3cc(Cl)ccc3c2)N[C@@H](CCC2CCCCC2)C1=O)c1ccccc1 | < 10 µM
* CC[C@H](CN1CC[C@@H](CNC(=O)c2ccc3cc(Cl)ccc3c2)N[C@@H](CCOCc2ccccc2)C1=O)c1ccccc1 | < 10 µM
* O=C(NC[C@@H]1CCN(CC(c2ccccc2)c2ccccc2)C(=O)[C@H](CCC(=O)N2CCCCC2)N1)c1ccc2ccccc2c1 | < 1 µM
* O=C(/C=C/c1ccc(Cl)cc1)NC[C@@H]1CCN(CC(c2ccccc2)c2ccccc2)C(=O)[C@H](CC(=O)N2CCCCC2)N1 | < 1 µM
